Parameter: % Phosphatase Activity (compared to DMSO) PRL-2. Scope: all listed entries.
Target: recombinant PRL-2 (Homo sapiens, UniProt Q12974)
Construct: 6xHis (N, cleaved yes); made in house; host or cells: E. coli One Shot BL21 Star
Sequence (Q12974 1-167): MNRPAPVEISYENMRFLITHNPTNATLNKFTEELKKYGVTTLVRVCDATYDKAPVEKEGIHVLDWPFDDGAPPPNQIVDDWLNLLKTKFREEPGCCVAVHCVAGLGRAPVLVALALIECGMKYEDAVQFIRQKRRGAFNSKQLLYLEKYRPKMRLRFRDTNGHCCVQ
Experiment: In vitro phosphatase assay (DiFMUP hydrolysis), PRL-2;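 also: PRL-2 activity read as DiFMUP hydrolysis after 20 min at room temperature with drug, enzyme first pre-reduced at 4 °C for 20 min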
Type: biochemical
Conditions: FDA-approved drug screen; compared to DMSO
Structures can show the parent of a compound that is named as a salt.
Dear colleague, please return just the value in %, with no unit written.

[
  {
    "molecule": "CN(C)CCCN1c2ccccc2Sc2ccc(Cl)cc21 [Chlorpromazine HCl]",
    "recorded.result": 109
  }
]

The value of % Phosphatase Activity (compared to DMSO) PRL-2 measured for the molecule O=C(OCc1ccccc1)c1ccccc1 [Benzyl benzoate] turned out to be 75

The value of % Phosphatase Activity (compared to DMSO) PRL-2 measured for the molecule Cc1cc(C2CCCCC2)n(O)c(=O)c1 [Ciclopirox] turned out to be 111

The value of % Phosphatase Activity (compared to DMSO) PRL-2 measured for the molecule CS(=O)(=O)O.Oc1ccc(C2CNCCc3c2cc(O)c(O)c3Cl)cc1 (centres unmarked) [Fenoldopam (mesylate)] turned out to be 102

The value of % Phosphatase Activity (compared to DMSO) PRL-2 measured for the molecule CC(C)(CO)C(O)C(=O)NCCCO (racemic) [DL-Panthenol] turned out to be 91

---

Target: recombinant PRL-3 (Homo sapiens)
Construct: 6xHis (N, cleaved yes); made in house; host or cells: E. coli One Shot BL21 Star
Sequence (O75365 whole entry): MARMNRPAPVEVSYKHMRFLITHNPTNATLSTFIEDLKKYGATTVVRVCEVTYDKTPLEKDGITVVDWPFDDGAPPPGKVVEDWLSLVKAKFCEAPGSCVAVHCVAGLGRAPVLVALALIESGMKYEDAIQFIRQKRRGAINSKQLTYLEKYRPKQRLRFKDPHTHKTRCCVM
Assay: In vitro phosphatase assay (DiFMUP hydrolysis), PRL-3; also: test concentration or dose not given here
Format: biochemical
Conditions: FDA-approved drug screen; compared to DMSO
Counter-ions that a name gives are not always drawn.
Parameter: % Phosphatase Activity (compared to DMSO) PRL-3. Scope: all listed entries.
Dear colleague, please return just the value in %, with no unit written.

The value of % Phosphatase Activity (compared to DMSO) PRL-3 measured for the compound [H]/N=C(\N/C(=N/[H])NCCCCCCNC(=N)NC(=N)Nc1ccc(Cl)cc1)Nc1ccc(Cl)cc1 [Chlorhexidine HCl] turned out to be 118

The value of % Phosphatase Activity (compared to DMSO) PRL-3 measured for the compound O=C(NCCN1CCOCC1)c1ccc(Cl)cc1 [Moclobemide (Ro 111163)] turned out to be 83

The value of % Phosphatase Activity (compared to DMSO) PRL-3 measured for the compound CC(=O)/N=c1/sc(S(N)(=O)=O)nn1C [Methazolamide] turned out to be 88

The value of % Phosphatase Activity (compared to DMSO) PRL-3 measured for the compound COCCCN1CCC(NC(=O)c2cc(Cl)c(N)c3c2OCC3)CC1.O=C(O)CCC(=O)O [Prucalopride Succinat] turned out to be 85

The value of % Phosphatase Activity (compared to DMSO) PRL-3 measured for the compound COc1ccc(C[C@H](N)C(=O)N[C@H]2[C@@H](O)[C@H](n3cnc4c(N(C)C)ncnc43)O[C@@H]2CO)cc1.Cl.Cl [Puromycin 2HCl] turned out to be 113

The value of % Phosphatase Activity (compared to DMSO) PRL-3 measured for the compound C[C@H]1COc2c(N3CCN(C)CC3)c(F)cc3c(=O)c(C(=O)O)cn1c23 [Levofloxacin hydrate] turned out to be 316

The value of % Phosphatase Activity (compared to DMSO) PRL-3 measured for the compound CO[C@H]1/C=C/O[C@@]2(C)Oc3c(C)c(O)c4c(O)c(c(/C=N/N5CCN(C)CC5)c(O)c4c3C2=O)NC(=O)/C(C)=C\C=C\[C@H](C)[C@H](O)[C@@H](C)[C@@H](O)[C@@H](C)[C@H](OC(C)=O)[C@@H]1C turned out to be 71
